// reported protein stability index per item
B1: ZNF8 (parent)
chain: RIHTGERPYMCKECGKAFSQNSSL

variants of: B1; assay: protein stability index of a GFP-peptide fusion (GPS, HEK-293T) (PSI 1-6); higher = more stable; conditions: c terminus: a fixed tail appended;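 also: lentivirally expressed fusions sorted by FACS into six bins by GFP to DsRed ratio, PSI derived from sequencing read proportions per bin multiplied by bin number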
Please state the value as a number alone, without comment.

protein stability index measured on G5A = 2.98

protein stability index measured on T4S = 2.81

protein stability index measured on S19A = 2.66
